- Study system: PSMA (Homo sapiens)
- Construct: host or cells: 22Rv1 human prostate cancer cells (intact cells)
- Sequence (Q04609 whole entry): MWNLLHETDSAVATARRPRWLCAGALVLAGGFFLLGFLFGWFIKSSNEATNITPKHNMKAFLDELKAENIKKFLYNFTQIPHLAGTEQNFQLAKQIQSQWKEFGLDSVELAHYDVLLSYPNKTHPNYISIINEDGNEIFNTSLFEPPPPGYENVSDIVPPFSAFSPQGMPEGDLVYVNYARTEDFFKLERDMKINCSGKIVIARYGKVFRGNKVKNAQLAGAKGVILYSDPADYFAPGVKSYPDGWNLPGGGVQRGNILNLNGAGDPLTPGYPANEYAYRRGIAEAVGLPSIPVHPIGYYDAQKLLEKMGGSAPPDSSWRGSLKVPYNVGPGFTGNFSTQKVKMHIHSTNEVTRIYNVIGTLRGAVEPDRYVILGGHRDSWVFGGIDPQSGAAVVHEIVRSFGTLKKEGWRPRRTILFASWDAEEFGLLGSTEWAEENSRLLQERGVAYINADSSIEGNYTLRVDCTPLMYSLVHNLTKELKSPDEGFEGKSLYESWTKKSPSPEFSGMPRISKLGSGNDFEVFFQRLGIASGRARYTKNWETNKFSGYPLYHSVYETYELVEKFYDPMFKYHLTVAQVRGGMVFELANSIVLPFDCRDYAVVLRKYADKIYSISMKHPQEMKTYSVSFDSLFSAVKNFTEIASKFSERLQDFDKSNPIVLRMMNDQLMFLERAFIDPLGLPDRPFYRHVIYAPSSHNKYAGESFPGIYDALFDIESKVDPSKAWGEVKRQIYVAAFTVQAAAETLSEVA
- Assay name: Saturation binding assay of ^125I-MIP-1095 in 22Rv1 cells
- Conditions: saturation binding test
Readout type: Kd (nM)
One number for each entry, in nM.

Enquiry: Name the recorded Kd of the molecule listed here: O=C(O)CC[C@H](NC(=O)N[C@@H](CCCCNC(=O)Nc1ccc(I)cc1)C(=O)O)C(=O)O
Return: 0.13

Measured values drawn from paper PMC10453766 for this set.
